- assay explanation: Assay of the vitamins contained in a randomly taken bottle of the syrupy product of Example 2 (yield = actual / theoretical amount x 100)
- Type: physicochemical
- experimental conditions: syrupy product of Example 2, after preparation and packaging under inert atmosphere; actual amount of vitamin in the bottle divided by theoretical amount x 100
- Description: […] One of the bottles produced is taken randomly and the vitamins contained in this bottle are assayed. The yields are calculated by dividing the actual amount of vitamins that is contained in the bottle by the theoretical amount of vitamins that should be in the bottle, and by multiplying the result by 100.
Exercise: for every item that follows, state its recorded YIELD (individual vitamin ratio).
Numbers only, in %.

Guide cases for YIELD (individual vitamin ratio), answers given:
| compound string | units text | YIELD (individual vitamin ratio) |
| --- | --- | --- |
| CC1=C(/C=C/C(C)=C/C=C/C(C)=C/CO)C(C)(C)CCC1 | % | 100 |
| CC(C)(CO)[C@@H](O)C(=O)NCCC(=O)O | % | 100 |
| Cc1ncc(CO)c(CO)c1O | % | 98.6 |

Dear reader, for each entry below, please note its YIELD (individual vitamin ratio).
1. Cc1cc2nc3c(=O)[nH]c(=O)nc-3n(C[C@H](O)[C@H](O)[C@H](O)CO)c2cc1C
2. O=C(O)c1cccnc1

Reply text:
98.6
98.8
